Recorded values, source patent US20060128729A1.

Measured melting point values are reported for all entries that follow.

* CCCc1nn(C)c2c(Nc3ccc(OC(F)(F)F)cc3)nc(-c3ccc(F)cc3)nc12.Cl | 230 to 232 °C

[in] Look at this compound and give its reported melting point. CCCc1nn(C)c2c(-c3ccc(OC)c(C)c3)nc(-c3ccc(F)cc3)nc12
[out] 136 to 138 °C

[in] Then Cc1nn(C)c2c(Nc3ccc(S(C)(=O)=O)cc3)nc(-c3ccc(F)cc3)nc12 ?
[out] 216 to 218 °C

[in] Then CCCc1nn(C)c2c(Nc3ccc(OC)c(Cl)c3)nc(-c3ccc(F)cc3)nc12.Cl ?
[out] 253.65 °C

[in] Then Cc1nn(C)c2cc(-c3ccc(F)cc3)nc(Nc3ccc(OC(F)(F)F)cc3)c12.Cl ?
[out] 248 to 250 °C

* * *

readout: melting point

* CCCc1nn(C)c2c(Nc3ccc(Cl)c(OC)c3)nc(-c3cccs3)nc12.Cl | 200 to 204 °C
* Cc1nn(C)c2c(Nc3cccc(F)c3)nc(-c3ccccc3)nc12.Cl | 218 to 220 °C
* CCCc1nn(C)c2c(-c3ccc(SC)cc3)nc(-c3ccc(F)cc3)nc12 | 114 to 116 °C
* COc1ccc(Nc2nc(-c3ccc(F)cc3)nc3c(C)nn(C)c23)cc1F.Cl | 262 °C
* Cc1nn(C)c2c(-c3ccc(OC(F)(F)F)cc3)nc(-c3ccc(F)cc3)nc12 | 170 to 172 °C
* CCCc1nn(C)c2c(N3CCC(O)CC3)nc(-c3ccc(OC)c(OC)c3)nc12 | 142 to 144 °C
* CCCc1nn(C)c2c(-c3ccc(OC)c(F)c3)nc(-c3ccccc3)nc12 | 158 to 160 °C
* CCCc1nn(C)c2c(-c3ccc(O)c(C)c3)nc(-c3ccccc3)nc12 | 204 to 206 °C

[in] Look at this compound and give its reported melting point. Cc1nn(C)c2c(N(C)C)nc(-c3ccccc3)nc12
[out] 86 to 88 °C

[in] Then Cc1nn(C)c2c(Nc3ccc(OC(F)(F)F)cc3)nc(-c3ccccc3)nc12.Cl ?
[out] 174 to 176 °C

* * *

Measured IC50 values are reported for all entries that follow.
System: human aortic smooth muscle cells
testDescription: Smooth muscle cell proliferation assay (radiolabeled thymidine incorporation or CellTiter AQ)
Type: cell-based
assayConditions: human aortic SMC, 24 h post treatment in serum-containing growth medium; read-out: Activity: concentration giving 50% inhibition of smooth muscle cell proliferation
Structures can show the parent of a compound that is named as a salt.
Answer in µM, number only, no unit symbol.

Some compounds with known IC50 results, for comparison:
* CCCc1nn(C)c2c(Nc3ccc(OC)c(F)c3)nc(-c3ccc(F)cc3)nc12 [E 1, hydrochloride] | 0.89
* COc1ccc(Nc2nc(-c3ccccc3)nc3c(C)nn(C)c23)cc1F [E 14, hydrochloride] | 0.43
* CCCc1nn(C)c2c(Nc3ccc(OC)c(Cl)c3)nc(-c3ccccc3)nc12.Cl [E 27, hydrochloride] | 1.28

[in] Look at this compound and give its reported IC50. CCCc1nn(C)c2c(Nc3ccc4c(c3)OCO4)nc(-c3ccc(F)cc3)nc12.Cl [E 8]
[out] 1

[in] Then Cc1nn(C)c2c(Nc3ccc4c(c3)OCO4)nc(-c3cccs3)nc12 [E 33, hydrochloride] ?
[out] 0.54

[in] Then Cc1nn(C)c2c(Nc3ccc(C(F)(F)F)cc3)nc(-c3ccc(F)cc3)nc12.Cl [E 39, hydrochloride] ?
[out] 0.33
